Value source: patent US20080226630A1

# TESTED TARGET: RSV protein F (recombinant or purified F protein) (human respiratory syncytial virus, …)
# ASSAY OVERVIEW: SPR Biacore 3000, Fab over amine-coupled recombinant protein F
REPORTED ENDPOINT: koff (s⁻¹)
// units = s⁻¹; emit number, no label

Sample answers from the record:
Fab fragment of antibody 817 (Fab, V domains shown, also called Fab clone 817) VH: QVQLVESGGGVVQPGRSLRLSCAASGFGFNTHGMHWVRQAPGKGLEWLSIISLDGIKTHYADSVKGRFTISRDNSKNTVFLQLSGLRPEDTAVYYCAKDHIGGTNAYFEWTVPFDGWGQGTLVTVSS VL: EIVMTQSPATLSASPGERATLSCWASQTIGGNLAWYQQKPGQAPRLLIYGASTRATGVPARFSGSGSGTEFTLAISSLQSEDFAVYYCQQYKNWYTFGQGTKLELKR ... 7.54e-05
Fab fragment of antibody 858 (Fab, V domains shown, also called Fab clone 858) VH: QVQLVQSGAEVKKPGSSVKVSCKASGGSFDGYTISWLRQAPGQGLEWMGRVVPTLGFPNYAQKFQGRVTVTADRSTNTAYLELSRLTSEDTAVYYCARMNLGSHSGRPGFDMWGQGTLVTVSS VL: DIQMTQSPSSVSASVGDRVTITCQASQDISNYLNWYQQKPGKAPKLLIFDATKLETGVPTRFIGSGSGTDFTVTITSLQPEDVATYYCQHFANLPYTFGQGTKLEIKR ... 3.4e-06

Attention now turns to another entry.
Provide one value: measured koff of Fab fragment of antibody 819 (Fab, V domains shown) VH: QVQLQESGPGLVKPSQTLSLTCTVSSGAISGADYYWSWIRQPPGKGLEWVGFIYDSGSTYYNPSLRSRVTISIDTSKKQFSLKLTSVTAADTAVYYCARDLGYGGNSYSHSYYYGLDVWGRGTTVTVSS VL: EIVLTQSPATLSLSPGERATLSCRASQSVSSSLAWYQQTPGQAPRLLIYDASYRVTGIPARFSGSGSGIDFTLTISSLEPEDFAVYYCQQRSNWPPGLTFGGGTKVEIKR
4.99e-05
